Test system: HCC1954
Experiment: Resazurin reduction cell viability assay
Format: cell-based
Settings: Homo sapiens, read-out: 8 h pulse IC50 ± SD; HCC1954 (HER2 amplified); 8 h pulse, read at 72 h
pIC50: −log10 of the molar value.
metric: pIC50

CC[C@H](Nc1nc(NCc2cnc(C)cc2C)c2ncn(C(C)C)c2n1)[C@@H](C)O 6.32

---

Target: CDK2/cyclin A (Homo sapiens)
Test: Carna IC50 determination
Settings: around Km [ATP]
Description: IC50 values were determined from a 10-point concentration curve using ATP concentrations approximating Km values. […] The percentage inhibition of each test solution was calculated, which allowed the IC50 value to be determined from concentration versus percentage inhibition curves by fitting to a four parameter logistic curve.

compound	IC50
CC[C@H](Nc1nc(NCc2cnc(C)cc2C)c2ncn(C(C)C)c2n1)[C@@H](C)O [Fadraciclib]	4.5 nM

---

Test system: KG-1
Assay: Resazurin reduction cell viability assay
Format: cell-based, human
Settings: Homo sapiens, KG-1, read-out: 6 h pulse IC50 ± SD, KG-1; 6 h pulse then 66 h release
pIC50: −log10 of the molar value.
metric: pIC50

compound	measured target	metric	recorded measurement
CC[C@H](Nc1nc(NCc2cnc(C)cc2C)c2ncn(C(C)C)c2n1)[C@@H](C)O [Fadraciclib]	KG-1	pIC50	6.30

---

Tested on: HCC1954
Assay: Resazurin reduction cell viability assay
Format: cell-based
Conditions: Homo sapiens; HCC1954; continuous 72 h; read-out: continuous IC50 ± SD
metric: IC50 (nM)

CC[C@H](Nc1nc(NCc2cnc(C)cc2C)c2ncn(C(C)C)c2n1)[C@@H](C)O 400

---

Target: CDK5/p25 (Homo sapiens)
Sequence (Q00535 whole entry): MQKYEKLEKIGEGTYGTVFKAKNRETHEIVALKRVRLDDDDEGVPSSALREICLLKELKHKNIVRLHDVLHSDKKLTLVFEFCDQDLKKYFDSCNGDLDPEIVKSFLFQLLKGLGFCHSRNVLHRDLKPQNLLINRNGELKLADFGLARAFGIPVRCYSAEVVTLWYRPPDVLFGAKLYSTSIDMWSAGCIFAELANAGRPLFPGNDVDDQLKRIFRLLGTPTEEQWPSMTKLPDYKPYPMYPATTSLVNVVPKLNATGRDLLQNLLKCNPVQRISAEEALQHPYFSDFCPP
Sequence (Q15078 99-307 partner limits assumed): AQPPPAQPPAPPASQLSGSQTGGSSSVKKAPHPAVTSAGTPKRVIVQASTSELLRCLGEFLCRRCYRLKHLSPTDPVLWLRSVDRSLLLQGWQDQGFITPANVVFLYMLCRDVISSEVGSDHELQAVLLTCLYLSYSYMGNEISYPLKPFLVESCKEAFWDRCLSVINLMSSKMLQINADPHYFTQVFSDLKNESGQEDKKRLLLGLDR
Experiment: Carna IC50 determination
Settings: around Km [ATP]
metric: IC50 (nM)

molecule	uom	recorded measurement
CC[C@H](Nc1nc(NCc2cnc(C)cc2C)c2ncn(C(C)C)c2n1)[C@@H](C)O [Fadraciclib]	nM	20.5

---

Test system: ML-2
Test: Resazurin reduction cell viability assay
Format: cell-based
Details: Homo sapiens, read-out: 6 h pulse IC50 ± SD, 6 h pulse then 66 h release
metric: IC50

compound	metric	recorded measurement
CC[C@H](Nc1nc(NCc2cnc(C)cc2C)c2ncn(C(C)C)c2n1)[C@@H](C)O [Fadraciclib]	IC50	330 nM

---

Test system: 184A1
Test: Resazurin reduction cell viability assay
Assay type: cell-based, human
Conditions: Homo sapiens, 184A1, 72 h, 184A1; continuous 72 h; read-out: continuous IC50 ± SD
metric: IC50 (nM)

CC[C@H](Nc1nc(NCc2cnc(C)cc2C)c2ncn(C(C)C)c2n1)[C@@H](C)O 250

---

Tested on: HEL
Assay: Resazurin reduction cell viability assay
Format: cell-based, human
Conditions: Homo sapiens, 72 h, 72 h continuous, read-out: 72 h continuous IC50 ± SD
pIC50: −log10 of the molar value.
metric: pIC50

molecule	measured target	recorded measurement
CC[C@H](Nc1nc(NCc2cnc(C)cc2C)c2ncn(C(C)C)c2n1)[C@@H](C)O [Fadraciclib]	HEL	6.28

---

Tested on: PL21
Test: Resazurin reduction cell viability assay
Type: cell-based, human
Conditions: Homo sapiens, PL-21, 72 h, PL21; 72 h continuous; read-out: 72 h continuous IC50 ± SD
pIC50: −log10 of the molar value.
metric: pIC50

CC[C@H](Nc1nc(NCc2cnc(C)cc2C)c2ncn(C(C)C)c2n1)[C@@H](C)O 6.47

---

Target: CDK2/cyclin E (Homo sapiens)
Assay: Kinase assay with recombinant CDK/cyclins (Cyclacel)
metric: IC50 (nM)

CC[C@H](Nc1nc(NCc2cnc(C)cc2C)c2ncn(C(C)C)c2n1)[C@@H](C)O 20

---

System: MV4-11
Test: Resazurin reduction cell viability assay
Format: cell-based, human
Settings: Homo sapiens, MV4-11, 72 h, MV4-11; 72 h continuous; read-out: 72 h continuous IC50 ± SD
metric: IC50 (nM)

CC[C@H](Nc1nc(NCc2cnc(C)cc2C)c2ncn(C(C)C)c2n1)[C@@H](C)O 260

---

Tested on: MOLM-13
Experiment: Resazurin reduction cell viability assay
Type: cell-based, human
Details: Homo sapiens, MOLM-13, 72 h, MOLM-13; 72 h continuous; read-out: 72 h continuous IC50 ± SD
metric: IC50 (µM)

CC[C@H](Nc1nc(NCc2cnc(C)cc2C)c2ncn(C(C)C)c2n1)[C@@H](C)O 0.24

---

Molecular target: CLK1 (Homo sapiens)
Sequence (P49759 whole entry): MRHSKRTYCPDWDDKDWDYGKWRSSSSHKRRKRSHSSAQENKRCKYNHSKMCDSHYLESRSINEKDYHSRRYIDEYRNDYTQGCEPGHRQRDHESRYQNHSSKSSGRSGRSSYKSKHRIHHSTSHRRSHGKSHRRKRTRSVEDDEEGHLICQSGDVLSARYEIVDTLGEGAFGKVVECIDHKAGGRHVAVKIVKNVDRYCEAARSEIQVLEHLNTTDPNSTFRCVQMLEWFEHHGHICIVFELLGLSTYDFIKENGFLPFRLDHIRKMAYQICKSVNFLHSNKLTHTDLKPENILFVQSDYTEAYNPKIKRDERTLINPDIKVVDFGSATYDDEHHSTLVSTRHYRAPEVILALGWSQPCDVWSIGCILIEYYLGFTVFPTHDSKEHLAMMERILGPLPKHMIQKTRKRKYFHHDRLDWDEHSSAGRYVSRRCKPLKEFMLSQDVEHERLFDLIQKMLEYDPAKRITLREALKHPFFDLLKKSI
pIC50: −log10 of the molar value.

compound	pIC50
CC[C@H](Nc1nc(NCc2cnc(C)cc2C)c2ncn(C(C)C)c2n1)[C@@H](C)O [Fadraciclib]	6.26

---

System: MCF10A
Experiment: Resazurin reduction cell viability assay
Format: cell-based, human
Conditions: Homo sapiens, MCF-10A, read-out: 8 h pulse IC50 ± SD, MCF10A (non-malignant); 8 h pulse, read at 72 h
Description: Solid tumor cell lines were seeded in 100 μl medium into 96-well plates at an appropriate cell number determined by a cell dilution assay (Cal51–2000 cells/well; Colo205, MCF10A and 184A1–3000 cells/well and MDA-MB-468, HCC1954–4000 cells/well). AML suspension cells were seeded in 96-well plates at approximately 3000 cells per well. […] Absorbance was measured on the Wallac Victor plate reader (Cambridge, UK) at 544–595 nm. IC50/70/90 calculations were determined in XLFit.
metric: IC50 (µM)

CC[C@H](Nc1nc(NCc2cnc(C)cc2C)c2ncn(C(C)C)c2n1)[C@@H](C)O 3.9

---

Test system: THP-1
Assay: Resazurin reduction cell viability assay
Format: cell-based, human
Conditions: read-out: 6 h pulse IC50 ± SD; THP-1; 6 h pulse then 66 h release
pIC50: −log10 of the molar value.

compound	pIC50
CC[C@H](Nc1nc(NCc2cnc(C)cc2C)c2ncn(C(C)C)c2n1)[C@@H](C)O [Fadraciclib]	5.97

---

Molecular target: CLK2 (Homo sapiens)
Sequence (P49760 whole entry): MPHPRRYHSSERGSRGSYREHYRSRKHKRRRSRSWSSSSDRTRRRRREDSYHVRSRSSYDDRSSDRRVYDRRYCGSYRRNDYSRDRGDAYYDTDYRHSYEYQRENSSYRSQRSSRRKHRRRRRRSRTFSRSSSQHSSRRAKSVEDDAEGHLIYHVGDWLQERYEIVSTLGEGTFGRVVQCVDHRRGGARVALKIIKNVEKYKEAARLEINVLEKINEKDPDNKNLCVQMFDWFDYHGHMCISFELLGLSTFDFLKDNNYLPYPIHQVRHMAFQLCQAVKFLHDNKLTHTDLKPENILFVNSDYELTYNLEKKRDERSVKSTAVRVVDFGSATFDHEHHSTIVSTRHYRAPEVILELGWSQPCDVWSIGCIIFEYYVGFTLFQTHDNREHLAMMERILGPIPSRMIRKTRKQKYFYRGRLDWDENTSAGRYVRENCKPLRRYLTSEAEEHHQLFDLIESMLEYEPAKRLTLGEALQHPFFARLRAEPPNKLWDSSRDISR

compound	IC50
CC[C@H](Nc1nc(NCc2cnc(C)cc2C)c2ncn(C(C)C)c2n1)[C@@H](C)O [Fadraciclib]	252 nM

---

Tested on: MCF10A
Assay: Resazurin reduction cell viability assay
Format: cell-based, human
Conditions: read-out: 8 h pulse IC50 ± SD; MCF10A (non-malignant); 8 h pulse, read at 72 h
metric: IC50 (µM)

molecule	metric	recorded measurement
CC[C@H](Nc1nc(NCc2cnc(C)cc2C)c2ncn(C(C)C)c2n1)[C@@H](C)O [Fadraciclib]	IC50	3.89

---

Test system: MDA-MB-468
Assay: Resazurin reduction cell viability assay
Type: cell-based
Conditions: Homo sapiens; MDA-MB-468; continuous 72 h; read-out: continuous IC50 ± SD
pIC50: −log10 of the molar value.
metric: pIC50

CC[C@H](Nc1nc(NCc2cnc(C)cc2C)c2ncn(C(C)C)c2n1)[C@@H](C)O 6.42
